Recorded values, source the supplement of paper PMC4723716.

- Tested on: Plasmodium falciparum NF54 gametocytes
- condition_description: gametocyte stage: Stage II Dose Response IC50 (µM); assay protocol: SaLSSA, 384; incubation time: 72 h
Counter-ions that a name gives are not always drawn.
value_type: IC50 of gametocyte viability (µM)
# number only, unit µM dropped from output

Use the examples below as a reference point.
# molecule, IC50 of gametocyte viability [µM]
records = [
    ("C[C@H]1[C@@H](O)O[C@@H]2O[C@@]3(C)CC[C@H]4[C@H](C)CC[C@@H]1[C@@]24OO3 [Artenimol (Dihydro artemisinin)]", 0.0027),
    ("CCN(CC)CCCC(C)Nc1ccnc2cc(Cl)ccc12 (stereo unspecified)", 0.0981),
    ("C=C[C@H]1CN2CC[C@H]1C[C@@H]2[C@@H](O)c1ccnc2ccc(OC)cc12", 0.208),
]

Query :: Quick one: IC50 of gametocyte viability of CN(C)c1ccc2nc3ccc(N(C)C)cc3[s+]c2c1 [Methylene Blue trihydrate] ?
Result :: 0.0153

Query :: Query COc1cc(N[C@H](C)CCCN)c2nccc(C)c2c1Oc1ccc(Cl)c(Cl)c1 [NPC-1161B] next
Result :: 2.02

Query :: One more molecule: C[C@@H]1CC[C@H]2[C@@H](C)C(=O)O[C@@H]3O[C@@]4(C)CC[C@@H]1[C@]32OO4
Result :: 0.0204

Query :: Also CCCCN(CCCC)CC(O)c1cc(Cl)cc2c1-c1ccc(Cl)cc1/C2=C/c1ccc(Cl)cc1 (stereo unspecified) , if possible.
Result :: 0.0131

Query :: How about CC(C)(C)NCc1cc(Nc2ccnc3cc(Cl)ccc23)c2c(c1O)CCCC2 ?
Result :: 0.0145

Query :: Further, for CCCCN(CCCC)CCC(O)c1cc2c(Cl)cc(Cl)cc2c2cc(C(F)(F)F)ccc12 (stereo unspecified) ?
Result :: 0.000896

Query :: Now this one: CC(C)NC(=N)NC(=N)Nc1ccc(Cl)c(Cl)c1 [Chlorproguanil hydrochloride/1.11]
Result :: 7.79

Query :: Repeat for the following molecule: CO[C@H]1O[C@@H]2O[C@@]3(C)CC[C@H]4[C@H](C)CC[C@@H]([C@H]1C)[C@@]24OO3
Result :: 0.00459

Query :: C[C@H]1[C@H](N2CCS(=O)(=O)CC2)O[C@@H]2O[C@@]3(C)CC[C@H]4[C@H](C)CC[C@@H]1[C@@]24OO3 , same question.
Result :: 0.00176

Query :: Thanks! And C[C@H]1[C@H](OC(=O)CCC(=O)O)O[C@@H]2O[C@@]3(C)CC[C@H]4[C@H](C)CC[C@@H]1[C@@]24OO3 [Artesunate] ?
Result :: 0.00351

----------
// reported IC50 of gametocyte viability per item
- Tested on: Plasmodium falciparum NF54 gametocytes
- condition_description: gametocyte stage: Stage II Dose Response IC50 (µM); assay protocol: SaLSSA, 384; incubation time: 72 h
Provide the reading as a plain figure in µM.

# molecule, study_system, value_units, IC50 of gametocyte viability
rows = [
    ("Clc1ccc2c(N3CCN(CCCN4CCN(c5ccnc6cc(Cl)ccc56)CC4)CC3)ccnc2c1 [Piperaquine phosphate]", "Plasmodium falciparum NF54 gametocytes", "µM", 0.0145),
]

Now take the following molecule into account.
Query :: Which measured IC50 of gametocyte viability belongs to CC(C)(N)CNC(=O)C[C@H]1CC[C@]2(CC1)OOC1(O2)C2CC3CC(C2)CC1C3 (stereo not given in full) , tested on Plasmodium falciparum NF54 gametocytes?
Result :: 0.00395

----------
# IC50 of gametocyte viability per entry
- Tested on: Plasmodium falciparum NF54 gametocytes
- condition_description: gametocyte stage: Stage I Dose Response IC50 (µM); assay protocol: TSSA, 384; incubation time: 72 h
Give the quantity in µM, number only.

Known IC50 of gametocyte viability results, listed for orientation:
# compound, IC50 of gametocyte viability, µM
records = [
    ("Clc1ccc2c(N3CCN(CCCN4CCN(c5ccnc6cc(Cl)ccc56)CC4)CC3)ccnc2c1 [Piperaquine phosphate]", 0.0223),
    ("C=C[C@H]1CN2CC[C@H]1C[C@@H]2[C@@H](O)c1ccnc2ccc(OC)cc12", 0.18),
]

Shifting focus to the compound that follows.
Query :: For the record CC(C)(N)CNC(=O)CC1CCC2(CC1)OOC1(O2)C2CC3CC(C2)CC1C3 (stereo not drawn) , what value of IC50 of gametocyte viability is listed for Plasmodium falciparum NF54 gametocytes?
Result :: 0.00821

----------
Parameter: IC50 of gametocyte viability. Scope: all listed entries.
- System: Plasmodium falciparum NF54 gametocytes
- condition_description: gametocyte stage: Stage V Dose Response IC50 (µM); assay protocol: TSSA, 384; incubation time: 72 h

Worked set:
# compound, study_system, IC50 of gametocyte viability
data = [
    ("OC(c1cc(C(F)(F)F)nc2c(C(F)(F)F)cccc12)C1CCCCN1 (stereo not drawn) [Mefloquine (+ RS)]", "Plasmodium falciparum NF54 gametocytes", "6.34 µM"),
    ("CCN(CC)CCCC(C)Nc1ccnc2cc(Cl)ccc12 (stereo not drawn) [Chloroquine]", "Plasmodium falciparum NF54 gametocytes", "> 6.25 µM"),
    ("C[C@H]1[C@H](OC(=O)CCC(=O)O)O[C@@H]2O[C@@]3(C)CC[C@H]4[C@H](C)CC[C@@H]1[C@@]24OO3 [Artesunate]", "Plasmodium falciparum NF54 gametocytes", "> 12.5 µM"),
    ("Clc1ccc2c(N3CCN(CCCN4CCN(c5ccnc6cc(Cl)ccc56)CC4)CC3)ccnc2c1 [Piperaquine phosphate]", "Plasmodium falciparum NF54 gametocytes", "> 4.17 µM"),
    ("COc1cc(C)c2c(Oc3cccc(C(F)(F)F)c3)c(OC)cc(NC(C)CCCN)c2n1 (stereo not drawn) [Tafenoquine]", "Plasmodium falciparum NF54 gametocytes", "0.919 µM"),
    ("COc1ccc2nc3cc(Cl)ccc3c(Nc3cc(CN4CCCC4)c(O)c(CN4CCCC4)c3)c2n1 [Pyronaridine phosphate]", "Plasmodium falciparum NF54 gametocytes", "3.16 µM"),
    ("OC(c1cc(C(F)(F)F)nc2c(C(F)(F)F)cccc12)C1CCCCN1 (racemic) [Mefloquine (Racemic)]", "Plasmodium falciparum NF54 gametocytes", "5.77 µM"),
    ("CC(C)(N)CNC(=O)CC1CCC2(CC1)OOC1(O2)C2CC3CC(C2)CC1C3 (stereo not drawn)", "Plasmodium falciparum NF54 gametocytes", "> 12.5 µM"),
]

Next compound, please.
Query :: Field request: IC50 of gametocyte viability | item: C[C@@H]1CC[C@H]2[C@@H](C)C(=O)O[C@@H]3O[C@@]4(C)CC[C@@H]1[C@]32OO4 [Artemisinin]
Result :: > 12.5 µM

----------
Below: a set of entries, each annotated with reported IC50 of gametocyte viability.
- Test system: Plasmodium falciparum NF54 gametocytes
- condition_description: gametocyte stage: Stage II Dose Response IC50 (µM); assay protocol: SaLSSA, 384; incubation time: 72 h
Express your answer in µM, writing the number without its unit.

Recorded IC50 of gametocyte viability, per entry:
# compound, number
measured = [
    ("N=C(N)c1ccc(OCCCCCOc2ccc(C(=N)N)cc2)cc1", 0.591),
    ("CC1Cc2c([nH]c3cc(F)c(F)cc23)C2(N1)C(=O)Nc1ccc(Cl)cc12 (centres undefined)", 0.00186),
    ("COc1ccc2nc3cc(Cl)ccc3c(Nc3cc(CN4CCCC4)c(O)c(CN4CCCC4)c3)c2n1 [Pyronaridine phosphate]", 0.01),
    ("CCN(CCO)CCCC(C)Nc1ccnc2cc(Cl)ccc12 (centres undefined) [Hydroxychloroquine]", 0.131),
    ("CNc1ccc(N(C)C(=O)c2cn3c(-c4ccc(Cl)cc4)cnc3cn2)cc1", 0.565),
]

Query :: What measured IC50 of gametocyte viability goes with CC1(C)c2nc(-c3ccc(F)cc3)c(Nc3ccc(Cl)cc3)n2CCN1C(=O)CN ?
Result :: 0.0641

Query :: Same question, O[C@@H](c1cc(C(F)(F)F)nc2c(C(F)(F)F)cccc12)[C@H]1CCCCN1 (racemic) [Mefloquine (Racemic)] this time
Result :: 0.052

Query :: Repeat for the following compound: COc1cc(NC(C)CCCN)c2ncccc2c1 (centres undefined)
Result :: 2.25

----------
- Tested on: Plasmodium falciparum NF54 gametocytes
- condition_description: gametocyte stage: Stage II Dose Response IC50 (µM); assay protocol: SaLSSA, 384; incubation time: 72 h
value_type: IC50 of gametocyte viability

Completed entries (count: 3):
# molecule, study_system, IC50 of gametocyte viability
rows = [
    ("Nc1ccc(S(=O)(=O)c2ccc(N)cc2)cc1", "Plasmodium falciparum NF54 gametocytes", "> 12.5 µM"),
    ("O=C1C(O)=C([C@H]2CC[C@H](c3ccc(Cl)cc3)CC2)C(=O)c2ccccc21", "Plasmodium falciparum NF54 gametocytes", "> 12.5 µM"),
    ("C[C@H]1c2cccc(O)c2C(=O)C2=C(O)[C@]3(O)C(=O)C(C(N)=O)=C(O)[C@@H](N(C)C)[C@@H]3[C@@H](O)[C@@H]21", "Plasmodium falciparum NF54 gametocytes", "> 12.5 µM"),
]

Query :: Entry C[C@@H]1C[C@@H]([C@H](O)CC2CC(=O)NC(=O)C2)C(=O)[C@@H](C)C1 [Cycloheximide] : reported IC50 of gametocyte viability = ?
Result :: 0.64 µM
